experiment: wn = mass fraction of the nth substance listed; conditions: 338.15 K; 101 kPa; Liquid; Vibrating tube method; w1 = 0.2
property: mass density (kg/m3)

molecule="CC(O)CN(CC(C)O)CC(C)O (centres undefined) [triisopropanolamine] + O" readout_value=990.739
molecule="CC(O)CNCC(C)O (centres undefined) [N-(2-hydroxypropyl)-2-hydroxy-1-propanamine] + O" readout_value=990.404
molecule="OCCNCCO [diethanolamine] + O" readout_value=1002.23
molecule="CC(O)CN (centres undefined) [1-amino-2-propanol] + O" readout_value=980.549

* * *

experiment: wn = mass fraction of the nth substance listed; details: 343.15 K; 101 kPa; Liquid; Vibrating tube method; w1 = 0.15
property: mass density (kg/m3)

molecule="CC(O)CNCC(C)O (centres undefined) [N-(2-hydroxypropyl)-2-hydroxy-1-propanamine] + O" readout_value=985.138
molecule="CC(O)CN (centres undefined) [1-amino-2-propanol] + O" readout_value=977.785
molecule="OCCNCCO [diethanolamine] + O" readout_value=993.878
molecule="CC(O)CN(CC(C)O)CC(C)O (centres undefined) [triisopropanolamine] + O" readout_value=985.312

* * *

test: wn = mass fraction of the nth substance listed; conditions: 338.15 K; 101 kPa; Liquid; Concentric cylinders viscometry; w1 = 0.15
property: viscosity (mPa·s)

molecule="CC(O)CNCC(C)O (centres undefined) [N-(2-hydroxypropyl)-2-hydroxy-1-propanamine] + O" readout_value=0.7693
molecule="CC(O)CN(CC(C)O)CC(C)O (centres undefined) [triisopropanolamine] + O" readout_value=0.7114
molecule="OCCNCCO [diethanolamine] + O" readout_value=0.6619
molecule="CC(O)CN (centres undefined) [1-amino-2-propanol] + O" readout_value=0.6919

* * *

test: wn = mass fraction of the nth substance listed; settings: 323.15 K; 101 kPa; Liquid; Concentric cylinders viscometry; w1 = 0.1
property: viscosity (mPa·s)

compound="CC(O)CNCC(C)O (centres undefined) [N-(2-hydroxypropyl)-2-hydroxy-1-propanamine] + O" display_unit=mPa·s readout_value=0.8047
compound="OCCNCCO [diethanolamine] + O" display_unit=mPa·s readout_value=0.7593
compound="CC(O)CN (centres undefined) [1-amino-2-propanol] + O" display_unit=mPa·s readout_value=0.7617
compound="CC(O)CN(CC(C)O)CC(C)O (centres undefined) [triisopropanolamine] + O" display_unit=mPa·s readout_value=0.7874

* * *

assay: refractive index (Na D-line) (dimensionless); wn = mass fraction of the nth substance listed; conditions: 323.15 K; 101 kPa; Liquid; Standard Abbe refractometry; w1 = 0.05
property: refractive index

compound="OCCNCCO [diethanolamine] + O" readout_value=1.33539
compound="CC(O)CN (centres undefined) [1-amino-2-propanol] + O" readout_value=1.33483
compound="CC(O)CN(CC(C)O)CC(C)O (centres undefined) [triisopropanolamine] + O" readout_value=1.3368
compound="CC(O)CNCC(C)O (centres undefined) [N-(2-hydroxypropyl)-2-hydroxy-1-propanamine] + O" readout_value=1.33675

* * *

test: wn = mass fraction of the nth substance listed; conditions: 308.15 K; 101 kPa; Liquid; Concentric cylinders viscometry; w1 = 0.25
property: viscosity (mPa·s)

compound="CC(O)CN(CC(C)O)CC(C)O (centres undefined) [triisopropanolamine] + O" readout_value=2.051
compound="CC(O)CNCC(C)O (centres undefined) [N-(2-hydroxypropyl)-2-hydroxy-1-propanamine] + O" readout_value=2.167
compound="OCCNCCO [diethanolamine] + O" readout_value=1.795
compound="CC(O)CN (centres undefined) [1-amino-2-propanol] + O" readout_value=1.799

* * *

test: wn = mass fraction of the nth substance listed; conditions: 333.15 K; 101 kPa; Liquid; Vibrating tube method; w1 = 0.15
property: mass density (kg/m3)

compound="OCCNCCO [diethanolamine] + O" readout_value=999.713
compound="CC(O)CN(CC(C)O)CC(C)O (centres undefined) [triisopropanolamine] + O" readout_value=991.422
compound="CC(O)CN (centres undefined) [1-amino-2-propanol] + O" readout_value=983.779
compound="CC(O)CNCC(C)O (centres undefined) [N-(2-hydroxypropyl)-2-hydroxy-1-propanamine] + O" readout_value=991.114

* * *

experiment: refractive index (Na D-line) (dimensionless); wn = mass fraction of the nth substance listed; settings: 303.15 K; 101 kPa; Liquid; Standard Abbe refractometry; w1 = 0.15
property: refractive index

compound="CC(O)CN (centres undefined) [1-amino-2-propanol] + O" property="refractive index" readout_value=1.35201
compound="OCCNCCO [diethanolamine] + O" property="refractive index" readout_value=1.35368
compound="CC(O)CNCC(C)O (centres undefined) [N-(2-hydroxypropyl)-2-hydroxy-1-propanamine] + O" property="refractive index" readout_value=1.35421
compound="CC(O)CN(CC(C)O)CC(C)O (centres undefined) [triisopropanolamine] + O" property="refractive index" readout_value=1.35487

* * *

assay: wn = mass fraction of the nth substance listed; settings: 308.15 K; 101 kPa; Liquid; Vibrating tube method; w1 = 0.15
property: mass density (kg/m3)

compound="CC(O)CNCC(C)O (centres undefined) [N-(2-hydroxypropyl)-2-hydroxy-1-propanamine] + O" property="mass density" readout_value=1003.35
compound="OCCNCCO [diethanolamine] + O" property="mass density" readout_value=1011.42
compound="CC(O)CN (centres undefined) [1-amino-2-propanol] + O" property="mass density" readout_value=996.159
compound="CC(O)CN(CC(C)O)CC(C)O (centres undefined) [triisopropanolamine] + O" property="mass density" readout_value=1004.08

* * *

experiment: wn = mass fraction of the nth substance listed; conditions: 303.15 K; 101 kPa; Liquid; Vibrating tube method; w1 = 0.2
property: mass density (kg/m3)

molecule="CC(O)CN(CC(C)O)CC(C)O (centres undefined) [triisopropanolamine] + O" property="mass density" readout_value=1009.61
molecule="OCCNCCO [diethanolamine] + O" property="mass density" readout_value=1019.14
molecule="CC(O)CNCC(C)O (centres undefined) [N-(2-hydroxypropyl)-2-hydroxy-1-propanamine] + O" property="mass density" readout_value=1008.5
molecule="CC(O)CN (centres undefined) [1-amino-2-propanol] + O" property="mass density" readout_value=999.018

* * *

test: refractive index (Na D-line) (dimensionless); wn = mass fraction of the nth substance listed; settings: 328.15 K; 101 kPa; Liquid; Standard Abbe refractometry; w1 = 0.05
property: refractive index

compound="CC(O)CN(CC(C)O)CC(C)O (centres undefined) [triisopropanolamine] + O" property="refractive index" readout_value=1.33565
compound="OCCNCCO [diethanolamine] + O" property="refractive index" readout_value=1.33442
compound="CC(O)CNCC(C)O (centres undefined) [N-(2-hydroxypropyl)-2-hydroxy-1-propanamine] + O" property="refractive index" readout_value=1.33566
compound="CC(O)CN (centres undefined) [1-amino-2-propanol] + O" property="refractive index" readout_value=1.33384

* * *

assay: wn = mass fraction of the nth substance listed; settings: 343.15 K; 101 kPa; Liquid; Concentric cylinders viscometry; w1 = 0.1
property: viscosity (mPa·s)

compound="OCCNCCO [diethanolamine] + O" display_unit=mPa·s readout_value=0.5534
compound="CC(O)CNCC(C)O (centres undefined) [N-(2-hydroxypropyl)-2-hydroxy-1-propanamine] + O" display_unit=mPa·s readout_value=0.6006
compound="CC(O)CN(CC(C)O)CC(C)O (centres undefined) [triisopropanolamine] + O" display_unit=mPa·s readout_value=0.57
compound="CC(O)CN (centres undefined) [1-amino-2-propanol] + O" display_unit=mPa·s readout_value=0.5701

* * *

assay: wn = mass fraction of the nth substance listed; settings: 303.15 K; 101 kPa; Liquid; Concentric cylinders viscometry; w1 = 0.1
property: viscosity (mPa·s)

compound="CC(O)CN(CC(C)O)CC(C)O (centres undefined) [triisopropanolamine] + O" display_unit=mPa·s readout_value=1.198
compound="CC(O)CNCC(C)O (centres undefined) [N-(2-hydroxypropyl)-2-hydroxy-1-propanamine] + O" display_unit=mPa·s readout_value=1.228
compound="OCCNCCO [diethanolamine] + O" display_unit=mPa·s readout_value=1.129
compound="CC(O)CN (centres undefined) [1-amino-2-propanol] + O" display_unit=mPa·s readout_value=1.148

* * *

test: wn = mass fraction of the nth substance listed; settings: 303.15 K; 101 kPa; Liquid; Vibrating tube method; w1 = 0.15
property: mass density (kg/m3)

compound="CC(O)CNCC(C)O (centres undefined) [N-(2-hydroxypropyl)-2-hydroxy-1-propanamine] + O" display_unit=kg/m3 readout_value=1005.27
compound="CC(O)CN(CC(C)O)CC(C)O (centres undefined) [triisopropanolamine] + O" display_unit=kg/m3 readout_value=1006.1
compound="CC(O)CN (centres undefined) [1-amino-2-propanol] + O" display_unit=kg/m3 readout_value=998.142
compound="OCCNCCO [diethanolamine] + O" display_unit=kg/m3 readout_value=1013.27
